meta.source: PubChem BioAssay (EPA / NIEHS)

assay: ATG_Sox_CIS: Attagene CIS-FACTORIAL HepG2 Assay for human SRY-box transcription factor (SOX) (AID 2282960); settings: HepG2 Attagene cis-factorial SOX reporter, mRNA; actives raise or lower the signal
The source made the active and inactive calls. Rule for the calls: active = hit-call score of the fitted dose curve at least 0.9, where 1 is the maximum; inactive = score below 0.9.
Please reply with one of these outcomes: T (active), F (inactive)

Smiles Repr: CSc1ccc(Cl)cc1
Label Value: F

Tell me the recorded outcome of this test for O=C1c2ccccc2C(=O)c2c(Cl)cccc21 .
F

Tell me the recorded outcome of this test for C[C@]12CC[C@H]3C(=CCc4cc(O)ccc43)[C@@H]1CCC2=O .
F

Tell me the recorded outcome of this test for O=C1C=CC(=O)N1c1ccccc1 .
F

----------
target: Androgen Receptor/SRC-1 Co-activator, AR (gene 367); test: OT_AR_ARSRC1_0960: Odyssey Thera (OT) 16-hour HEK293T Protein-Complementation Assay for Androgen Receptor/SRC-1 Co-activator (AID 2283353);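 note: actives raise the signal above DMSO so potency reflects increased AR and SRC-1 complex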
Activity calls are given as the source filed them. How the source made its calls: active means hit-call score of the fitted dose curve at least 0.9, where 1 is the maximum; inconclusive means response in the unintended direction; inactive means score below 0.9.
Measure: AC50

Check out these entries, answers already filled in.
Molecule: F[Si-2](F)(F)(F)(F)F
Measured Result: inactive
--
Molecule: COCCOCCC[Si](C)(O[Si](C)(C)C)O[Si](C)(C)C
Measured Result: 34.3 µM (active)
--
Molecule: CCN=c1cc2oc3cc(NCC)c(C)cc3c(-c3ccccc3C(=O)OCC)c-2cc1C
Measured Result: 0.55 µM (active)
--
Molecule: C[C@]12CC[C@H]3C(=CCc4cc(O)ccc43)[C@@H]1CCC2=O
Measured Result: 1.42 µM (active)

// switching to the query molecule
If you can, please state the reported AC50 value of CCCCCCCC/C=C\CCCCCCCC(=O)OCC(O)CO (stereo not given) .
inactive

----------
test: BSK_3C_uPAR: BioMAP Diversity Plus: 3C Assay for Urokinase-type plasminogen activator receptor (uPAR) Biomarker Activity (AID 2282998); conditions: BioMAP 3C HUVEC, uPAR biomarker ELISA; actives raise or lower the signal
Active and inactive are the calls of the source. Rule for the calls: active = hit-call score of the fitted dose curve at least 0.9, where 1 is the maximum; inactive = score below 0.9.
Please reply with one of these outcomes: TRUE for active, FALSE for inactive

Look over these answered cases.
Smiles Repr: CCN(CC)c1ccc(C=O)cc1
Label Value: FALSE
//
Smiles Repr: Cc1ccc(S(=O)(=O)C(I)I)cc1
Label Value: TRUE
//
Smiles Repr: CCN(CC)c1ccc(N=Nc2ccccc2)cc1
Label Value: TRUE

Lab note: next molecule to report on.
Tell me the recorded outcome of this test for NC(=O)C(F)(F)C(F)(F)C(F)(F)F .
FALSE

----------
test: ATG_AP_1_CIS: Attagene CIS-FACTORIAL HepG2 Assay for human Activator Protein 1 (AP-1) (AID 2282931); conditions: HepG2 Attagene cis-factorial AP-1 reporter mRNA; actives raise or lower the signal
The source made the active and inactive calls. How the source made its calls: active means hit-call score of the fitted dose curve at least 0.9, where 1 is the maximum; inactive means score below 0.9.
Please reply with one of these outcomes: label 1 for active, label 0 for inactive

Look over these answered cases.
Smiles Repr: O=C1OC(=O)c2ccc3c4c(ccc1c24)C(=O)OC3=O
Label Value: label 0
//
Smiles Repr: OCC(F)(F)C(F)(F)C(F)(F)C(F)(F)C(F)(F)C(F)(F)CO
Label Value: label 0
//
Smiles Repr: O=C(O)C(F)(F)C(F)(F)C(F)(F)C(F)(F)C(F)(F)C(F)(F)C(F)F
Label Value: label 0
//
Smiles Repr: CCN(CC)c1ccc2c(c1)Oc1cc(N(CC)CC)ccc1C21OC(=O)c2ccccc21
Label Value: label 0

Tell me the recorded outcome of this test for O=C1c2ccccc2C(=O)c2c(Cl)cccc21 .
label 0

Tell me the recorded outcome of this test for c1ccc(C[P+](c2ccccc2)(c2ccccc2)c2ccccc2)cc1 .
label 0

Tell me the recorded outcome of this test for CC(C)C(=O)OCc1ccccc1 .
label 0

Tell me the recorded outcome of this test for OC(O)C(F)(F)C(F)(F)F .
label 1

Tell me the recorded outcome of this test for CC(C)Nc1ccc(NC(C)C)c2c1C(=O)c1ccccc1C2=O .
label 0

Tell me the recorded outcome of this test for FC(F)(F)C(F)(F)C(F)(F)C(F)(F)C(F)(F)C(F)(F)CC[Si](Cl)(Cl)Cl .
label 0

Tell me the recorded outcome of this test for CCCCCC/C=C/CCCCCCCC(=O)O .
label 0

----------
read-out: Interleukin-1 alpha (IL1a), IL1A (gene 3552); assay: BSK_BE3C_IL1a: BioMAP Diversity Plus: BE3C Assay for Interleukin-1 alpha (IL1a) Biomarker Activity (AID 2283016); settings: primary human bronchial epithelial cells; actives raise or lower the signal
Calls of active or inactive are those of the source. Rule for the calls: active = hit-call score of the fitted dose curve at least 0.9, where 1 is the maximum; inactive = score below 0.9.
Please reply with one of these outcomes: 1 for active, -1 for inactive

Compound: Cc1ccc(O)c(-n2nc3ccccc3n2)c1
Label Value: -1
--
Compound: CCN(CC)c1ccc(N=Nc2ccccc2)cc1
Label Value: 1
--
Compound: FC(F)(F)C(F)(F)C(F)(F)CC1CO1 (stereo not drawn)
Label Value: -1
--
Compound: CO[Si](C)(CCC(F)(F)C(F)(F)C(F)(F)C(F)(F)C(F)(F)C(F)(F)F)OC
Label Value: -1
--
Compound: FC(F)(F)C(F)(F)C(F)(F)C(F)(F)C(F)(F)C(F)(F)C(F)(F)CCI
Label Value: -1

Tell me the recorded outcome of this test for O=C(O)C(F)(F)C(F)(F)C(F)(F)OC(F)(C(F)(F)F)C(F)(F)F .
-1

Tell me the recorded outcome of this test for CNS(=O)(=O)C(F)(F)C(F)(F)C(F)(F)C(F)(F)C(F)(F)C(F)(F)C(F)(F)C(F)(F)F .
-1

Tell me the recorded outcome of this test for Cc1cc(C)c(O)c(C(C)(C)C)c1 .
1

Tell me the recorded outcome of this test for NC(=O)C(F)(F)C(F)(F)C(F)(F)F .
-1

Tell me the recorded outcome of this test for CN(C(=O)C(F)(F)C(F)(F)C(F)(F)F)[Si](C)(C)C .
-1

Tell me the recorded outcome of this test for O=C(O)C(F)(F)C(F)(F)C(F)(F)C(=O)O .
-1

Tell me the recorded outcome of this test for OCC(O)CC(F)(F)C(F)(F)C(F)(F)C(F)(F)C(F)(F)C(F)(F)C(F)(F)C(F)(F)F (stereo not drawn) .
-1

Tell me the recorded outcome of this test for O=C(Cl)C(F)(F)C(F)(F)C(F)(F)C(F)(F)C(F)(F)C(F)(F)F .
-1

Tell me the recorded outcome of this test for NC(=O)C(F)(F)C(F)(F)C(F)(F)C(F)(F)C(F)(F)C(F)(F)C(F)(F)F .
-1

Tell me the recorded outcome of this test for O=S(=O)(O)CCC(F)(F)C(F)(F)C(F)(F)C(F)(F)C(F)(F)C(F)(F)C(F)(F)C(F)(F)F .
-1

----------
experiment: CCTE_Deisenroth_5AR_NBTE_donor: CCTE's 5alpha-reductase NanoBRET Target Engagement Assay […], Deisenroth Lab (AID 2284319); conditions: actives raise or lower the signal
Activity calls are given as the source filed them. Rule for the calls: active = hit-call score of the fitted dose curve at least 0.9, where 1 is the maximum; inactive = score below 0.9.
Record form. Attribute: AC50. Fill in for each entry.

Smiles Repr: CCN=c1cc2oc3cc(NCC)c(C)cc3c(-c3ccccc3C(=O)OCC)c-2cc1C
Measured Result: 10 µM (active)

Smiles Repr: CCN=C1C=CC(=C(c2ccc(N(CC)CC)cc2)c2ccc(N(CC)CC)cc2)c2ccccc21
Measured Result: 6.95 µM (active)

Smiles Repr: CCCCCCCCCCCCCC[P+](CCCC)(CCCC)CCCC
Measured Result: 13.1 µM (active)

// switching to the query compound
If you can, please state the reported AC50 value of CCCCCCCCCCCCC[N+](C)(C)Cc1ccccc1 .
18.2 µM (active)

----------
Molecular target: Luciferin 4-monooxygenase (Photinus pyralis) (UniProt P08659)
Sequence (P08659 whole entry, looked up): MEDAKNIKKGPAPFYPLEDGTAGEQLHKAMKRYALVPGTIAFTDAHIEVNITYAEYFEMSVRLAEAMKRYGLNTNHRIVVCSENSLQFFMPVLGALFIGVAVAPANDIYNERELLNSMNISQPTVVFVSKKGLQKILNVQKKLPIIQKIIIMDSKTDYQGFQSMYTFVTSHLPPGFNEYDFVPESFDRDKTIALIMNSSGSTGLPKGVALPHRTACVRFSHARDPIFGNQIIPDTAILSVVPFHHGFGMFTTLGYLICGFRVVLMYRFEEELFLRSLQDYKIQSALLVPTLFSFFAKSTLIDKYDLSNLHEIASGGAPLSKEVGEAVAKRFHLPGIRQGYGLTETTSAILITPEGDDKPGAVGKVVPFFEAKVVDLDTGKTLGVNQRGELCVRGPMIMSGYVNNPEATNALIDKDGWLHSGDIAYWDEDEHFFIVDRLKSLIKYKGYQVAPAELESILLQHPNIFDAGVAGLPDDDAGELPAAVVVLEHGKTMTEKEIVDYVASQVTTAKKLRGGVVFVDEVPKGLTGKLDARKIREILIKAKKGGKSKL
Experiment: CCTE_Simmons_QuantiLum_inhib_2: CCTE's Firefly Luciferase Inhibition Assay, Simmons Lab (AID 2283767)
Experimental: CCTE_Simmons_QuantiLum_inhib_2 is a biochemical, single-readout assay that uses purified luciferase enzyme in a cell-free assay.Measurements were taken 0.5 hour after chemical dosing in a 384-well plate.CCTE_Simmons_QuantiLum_inhib_2 is the assay component measured from the CCTE_Simmons_QuantiLum_inhib_2 assay. It is designed to make measurements of enzyme activity, a form of enzyme reporter, as detected with bioluminescence signals by Luciferase-coupled Quantilum levels technology. […]
Results filed as inconclusive are left out. Calls of active or inactive are those of the source. How the source made its calls: active means hit-call score of the fitted dose curve at least 0.9, where 1 is the maximum; inconclusive means response in the unintended direction; inactive means score below 0.9.
Please reply with one of these outcomes: active, inactive

Tell me the recorded outcome of this test for O=c1cccc[nH]1 .
inactive

Tell me the recorded outcome of this test for O=c1[nH]cccc1O .
inactive

Tell me the recorded outcome of this test for CCN=C1C=CC(=C(c2ccc(N(CC)CC)cc2)c2ccc(N(CC)CC)cc2)c2ccccc21 .
active

Tell me the recorded outcome of this test for Cc1ccc(O)c(-n2nc3ccccc3n2)c1 .
active

Tell me the recorded outcome of this test for O=C(c1ccccc1)c1ccc(O)cc1O .
inactive

Tell me the recorded outcome of this test for CCCCCCCCCCCCCC[P+](CCCC)(CCCC)CCCC .
active

Tell me the recorded outcome of this test for CC(C)OC=O .
inactive
